B1: TRIM55 (parent)
chain: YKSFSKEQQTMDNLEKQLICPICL

# Variants of: B1
# assayText: protein stability index of a GFP-peptide fusion (GPS, HEK-293T) (PSI 1-6); higher = more stable;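 note: lentivirally expressed fusions sorted by FACS into six bins by GFP to DsRed ratio, PSI derived from sequencing read proportions per bin multiplied by bin number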
# experimentalConditions: c terminus: a fixed tail appended
protein stability index below 2 gives n; protein stability index at or above it gives y.

[[record]]
polymersequence = "YKSFSQEQQTMDNLEKQLICPICL [K6Q]"
labelvalue = "y"

[[record]]
polymersequence = "YKSFSKEQQTLDNLEKQLICPICL [M11L]"
labelvalue = "y"

[[record]]
polymersequence = "YKSFSKEQQTMDNLEDQLICPICL [K16D]"
labelvalue = "y"

[[record]]
polymersequence = "YKSFSKEQQTMDNLTKQLICPICL [E15T]"
labelvalue = "y"

[[record]]
polymersequence = "YKSFSKEQQTMDNLEKQLIIPICL [C20I]"
labelvalue = "n"

[[record]]
polymersequence = "YKSFSKEQMTMDNLEKQLICPICL [Q9M]"
labelvalue = "y"

[[record]]
polymersequence = "YKSFSKEQQTMDNLEKQLICPIEL [C23E]"
labelvalue = "y"

[[record]]
polymersequence = "YKSFSKEQQTMDNLEKQGICPICL [L18G]"
labelvalue = "y"

[[record]]
polymersequence = "YKSFSKEQQTMDNLEKQMICPICL [L18M]"
labelvalue = "y"


Here is another variant to look at.
Does the reported protein stability index for YKSFSHEQQTMDNLEKQLICPICL [K6H] fall at or above the 2 mark?
n
